As shown below, each of these variants has a reported protein stability index value.
B1: CDC34 (parent)
chain: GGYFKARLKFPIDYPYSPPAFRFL

Variants of: B1
experimental.details: protein stability index of a GFP-peptide fusion (GPS, HEK-293T) (PSI 1-6); higher = more stable;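 further: lentivirally expressed fusions sorted by FACS into six bins by GFP to DsRed ratio, PSI derived from sequencing read proportions per bin multiplied by bin number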
condition.label: c terminus: a fixed tail appended
measured.parameter: protein stability index

- Y3N: 2.44
- I12R: 1.7
- L8E: 2.3
- Y3H: 3.02
- F10G: 2.75
- P15Q: 2.06
- A20S: 2.54
- F21C: 2.55
- L8D: 2.24
- K9Q: 2.55
- F10I: 2.44
- K5Q: 3.03
- G1F: 2.55
- I12L: 2.49
- G1C: 2.8
- P11A: 2.77

Where do these numbers come from? They come from the supplement of paper PMC10567573.
